biological target: T1, Human PD-1 (Swiss-Prot entry Q15116), full length, on cells (human, UniProt Q15116 21-288); assay: CELISA on CHO-K1.hPDCD1 cells
T1 construct: Full length open reading frame of hPD-1 stably expressed on CHO-K1 cells; also endogenous PD-1 on CD3/CD28-stimulated human CD3+ T cells and PD-1 on transfected Jurkat cells; also called hPD-1; hPDCD1
T1 sequence (Q15116 21-288, one chain of several): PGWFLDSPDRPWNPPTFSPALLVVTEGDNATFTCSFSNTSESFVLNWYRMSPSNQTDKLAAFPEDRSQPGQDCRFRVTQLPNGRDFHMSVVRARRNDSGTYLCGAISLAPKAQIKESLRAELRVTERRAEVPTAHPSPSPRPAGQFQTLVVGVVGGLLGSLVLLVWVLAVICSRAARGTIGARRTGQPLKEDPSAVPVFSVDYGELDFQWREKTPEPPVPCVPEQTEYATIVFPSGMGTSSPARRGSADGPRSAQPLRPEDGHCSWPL
Reported EC50 by item:
Reply numerically in nM, unit not repeated.

binder: hPD1.29H5_Y32D_L4 (antibody, V domains shown, IgG4 S241P kappa format of the parent) VH: EVQLVQSGAEVKKPGASVKVSCKASGYIFTTDYIHWVKQAPGKGLEWIGWIFPGDVSTQYNEKFQDKATITVDKSASTAYMQLSSLRSEDTAVYYCTREAYDYAVYWGQGTLVTVSS VL: DIQMTQAPSSLSASVGDRVTITCKASQNVDTNVAWFQQKPGKAPKSLIFSASYRYSGVPSRFSGSGSGTDFTLTISSLQPEDFATYYCQQYNNYPFTFGGGTKLEIK
EC50 / nM: 0.3

binder: hPD1.29H5_A9P_L4 (antibody, V domains shown, Mutant of hPD1.29H5L4 (human IgG4 S241P kappa format of the parent)) VH: EVQLVQSGPEVKKPGASVKVSCKASGYIFTTYYIHWVKQAPGKGLEWIGWIFPGDVSTQYNEKFQDKATITVDKSASTAYMQLSSLRSEDTAVYYCTREAYDYAVYWGQGTLVTVSS VL: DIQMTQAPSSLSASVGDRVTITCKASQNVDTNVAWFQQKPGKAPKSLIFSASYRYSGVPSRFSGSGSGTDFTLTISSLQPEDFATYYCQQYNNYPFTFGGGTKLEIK
EC50 / nM: 0.4

Please look at the following binder next.
Prompt line: Name the reported EC50 value associated with the binder hPD1.29H5_K12V_L4 (antibody, V domains shown, Mutant of hPD1.29H5L4 (human IgG4 S241P kappa format of the parent)) VH: EVQLVQSGAEVVKPGASVKVSCKASGYIFTTYYIHWVKQAPGKGLEWIGWIFPGDVSTQYNEKFQDKATITVDKSASTAYMQLSSLRSEDTAVYYCTREAYDYAVYWGQGTLVTVSS VL: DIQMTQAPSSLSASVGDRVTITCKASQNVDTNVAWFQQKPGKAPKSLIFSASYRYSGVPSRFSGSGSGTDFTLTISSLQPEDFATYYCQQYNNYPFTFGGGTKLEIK
Response line: 0.4
